Recorded Ka, one value per entry.
# Test system: rat small intestine (duodenum, jejunum, ileum)
# test.method.notes: In situ single-pass intestinal perfusion (SPIP), saponins administrated in MDQ-TS form
# Type: in vivo
# study.conditions: MDQ-TS form 1.25 mg·mL^−1, jejunum, n = 5

- compound: "C[C@H]1CC[C@]2(C(=O)O)CC[C@]3(C)C(=CC[C@@H]4[C@@]5(C)CC[C@H](O[C@@H]6OC[C@@H](O)[C@H](O)[C@H]6O[C@@H]6O[C@H](CO)[C@@H](O)[C@H](O)[C@H]6O)C(C)(C)[C@@H]5CC[C@]43C)[C@@H]2[C@]1(C)O"
  measurement.name: "Ka"
  result: "0.94 ± 0.12 ×10^−2 min^−1"

[ask] Please look up its Ka: `C[C@@H]1CC[C@]2(C(=O)O)CC[C@]3(C)C(=CC[C@@H]4[C@@]5(C)CC[C@H](O)[C@@](C)(C(=O)O)[C@@H]5CC[C@]43C)[C@@H]2[C@]1(C)O`
[reply] 0.95 ± 0.28 ×10^−2 min^−1

[ask] Please look up its Ka: `C[C@@H]1O[C@@H](O[C@H]2[C@H](O[C@H]3[C@H](O[C@H]4CC[C@]5(C)[C@H]6CC=C7[C@H]8[C@](C(=O)O)(CC[C@H](C)[C@@]8(C)O)CC[C@@]7(C)[C@]6(C)CC[C@H]5C4(C)C)OC[C@@H](O)[C@@H]3O)O[C@H](CO)[C@@H](O)[C@@H]2O)[C@H](O)[C@H](O)[C@H]1O`
[reply] 0.84 ± 0.47 ×10^−2 min^−1

[ask] Please look up its Ka: CC1CCC2(C(=O)OC3OC(CO)C(O)C(O)C3O)CCC3(C)C(=CCC4C5(C)CCC(O)C(C)(C(=O)O)C5CCC43C)C2C1(C)O (stereo not shown)
[reply] 0.74 ± 0.25 ×10^−2 min^−1
